experimental-system: Centromere-associated protein E (Homo sapiens)
Sequence (Q02224 whole entry): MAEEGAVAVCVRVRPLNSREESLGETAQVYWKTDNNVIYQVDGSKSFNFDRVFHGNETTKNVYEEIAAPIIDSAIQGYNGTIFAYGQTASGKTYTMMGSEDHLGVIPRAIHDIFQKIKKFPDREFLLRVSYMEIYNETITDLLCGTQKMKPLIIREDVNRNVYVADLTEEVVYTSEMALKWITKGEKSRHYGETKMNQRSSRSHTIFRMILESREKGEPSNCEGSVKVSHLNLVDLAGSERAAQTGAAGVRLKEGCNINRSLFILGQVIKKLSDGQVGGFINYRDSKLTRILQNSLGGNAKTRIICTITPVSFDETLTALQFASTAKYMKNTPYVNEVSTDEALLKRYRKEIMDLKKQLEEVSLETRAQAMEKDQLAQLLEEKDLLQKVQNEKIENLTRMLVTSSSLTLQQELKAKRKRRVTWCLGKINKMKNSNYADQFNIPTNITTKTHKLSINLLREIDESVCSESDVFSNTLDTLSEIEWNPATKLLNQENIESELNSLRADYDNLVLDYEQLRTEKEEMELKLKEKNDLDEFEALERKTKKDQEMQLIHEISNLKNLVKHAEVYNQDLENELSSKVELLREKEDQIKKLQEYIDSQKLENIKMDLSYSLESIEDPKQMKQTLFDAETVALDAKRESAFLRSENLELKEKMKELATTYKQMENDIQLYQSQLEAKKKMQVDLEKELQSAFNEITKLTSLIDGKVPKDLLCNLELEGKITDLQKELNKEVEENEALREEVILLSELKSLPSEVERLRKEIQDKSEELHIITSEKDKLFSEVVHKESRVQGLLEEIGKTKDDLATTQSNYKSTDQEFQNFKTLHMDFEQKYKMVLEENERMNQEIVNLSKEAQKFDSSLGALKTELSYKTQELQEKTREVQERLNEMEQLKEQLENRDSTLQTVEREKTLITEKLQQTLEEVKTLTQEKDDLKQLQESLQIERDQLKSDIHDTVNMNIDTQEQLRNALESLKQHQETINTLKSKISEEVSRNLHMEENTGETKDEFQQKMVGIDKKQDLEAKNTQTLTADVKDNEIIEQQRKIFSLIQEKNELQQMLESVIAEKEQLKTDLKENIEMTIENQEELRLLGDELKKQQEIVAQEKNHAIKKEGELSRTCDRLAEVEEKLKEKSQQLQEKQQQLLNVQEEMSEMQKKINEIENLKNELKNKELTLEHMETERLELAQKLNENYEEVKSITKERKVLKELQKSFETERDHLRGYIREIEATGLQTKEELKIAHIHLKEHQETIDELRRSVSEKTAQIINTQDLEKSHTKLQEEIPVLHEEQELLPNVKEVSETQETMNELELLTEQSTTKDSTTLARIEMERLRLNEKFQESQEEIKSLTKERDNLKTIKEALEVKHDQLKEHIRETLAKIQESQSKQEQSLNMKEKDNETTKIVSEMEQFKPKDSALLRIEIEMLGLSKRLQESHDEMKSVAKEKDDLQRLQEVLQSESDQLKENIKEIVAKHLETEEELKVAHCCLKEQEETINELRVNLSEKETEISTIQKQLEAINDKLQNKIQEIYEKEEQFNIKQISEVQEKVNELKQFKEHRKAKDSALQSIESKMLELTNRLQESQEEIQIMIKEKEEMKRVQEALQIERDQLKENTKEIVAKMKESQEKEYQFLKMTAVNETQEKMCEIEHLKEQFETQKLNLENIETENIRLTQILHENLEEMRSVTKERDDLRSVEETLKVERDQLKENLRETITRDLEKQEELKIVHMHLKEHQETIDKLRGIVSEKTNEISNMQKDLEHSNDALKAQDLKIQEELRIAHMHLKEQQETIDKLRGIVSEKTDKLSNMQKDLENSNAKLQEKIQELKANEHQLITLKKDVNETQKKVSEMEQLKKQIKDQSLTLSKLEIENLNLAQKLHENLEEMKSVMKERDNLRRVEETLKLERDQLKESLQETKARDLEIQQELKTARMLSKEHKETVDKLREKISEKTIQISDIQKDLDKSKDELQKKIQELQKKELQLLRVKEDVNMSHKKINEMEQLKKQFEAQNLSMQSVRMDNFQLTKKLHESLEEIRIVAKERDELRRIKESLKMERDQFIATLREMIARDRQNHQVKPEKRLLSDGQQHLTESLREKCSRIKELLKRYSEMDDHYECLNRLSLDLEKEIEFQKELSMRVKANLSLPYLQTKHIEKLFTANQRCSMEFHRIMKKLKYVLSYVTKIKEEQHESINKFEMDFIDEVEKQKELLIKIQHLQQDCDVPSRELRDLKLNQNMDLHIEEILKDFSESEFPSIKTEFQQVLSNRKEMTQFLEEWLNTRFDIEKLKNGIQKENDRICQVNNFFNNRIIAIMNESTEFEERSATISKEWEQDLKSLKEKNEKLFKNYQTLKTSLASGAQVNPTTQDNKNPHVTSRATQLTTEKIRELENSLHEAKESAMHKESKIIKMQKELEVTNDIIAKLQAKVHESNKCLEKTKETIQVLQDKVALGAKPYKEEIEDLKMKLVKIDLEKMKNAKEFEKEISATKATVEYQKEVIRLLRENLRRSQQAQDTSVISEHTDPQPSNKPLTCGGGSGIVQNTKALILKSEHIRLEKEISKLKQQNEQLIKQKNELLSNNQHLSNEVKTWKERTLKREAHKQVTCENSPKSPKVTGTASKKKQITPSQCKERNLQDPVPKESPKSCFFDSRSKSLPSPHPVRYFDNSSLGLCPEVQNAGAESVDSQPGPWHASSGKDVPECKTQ
assay-notes: Inhibition of microtubule-stimulated ATPase activity of human CENP-E by pyruvate kinase/lactate dehydrogenase-linked assay
quantity-kind: pIC50
pIC50 field: float, defined as -log10 of concentration (mol/L).

[Q] Report pIC50 for `CCCCCC(=O)Cc1cc(O)cc2c1C(=O)Oc1cc(O)c(C(=O)O)c(CCCCC)c1O2` please.
[A] 4.04

----------
assay-notes: Cytotoxicity against human HCT116 cells assessed as growth inhibition after 72 hrs by Alamar Blue assay
Type: functional, cell-based
measurement-context: HCT-116, 72 h
Assignment: determine reported pEC50 for the given compounds.
pEC50 field: float, defined as -log10 of concentration (mol/L).

[Q] Report pEC50 for CCCCCc1c2c(cc(O)c1C(=O)O)OC(=O)c1c(cc(OC)cc1C(=O)CCCC)O2 [LOBARIC ACID] please.
[A] 6.10

[Q] Report pEC50 for `CCCCCc1cc(O)cc2c1Oc1cc(O)cc(C(=O)CCCC)c1C(=O)O2` please.
[A] 4.37

----------
assay-notes: Apparent passive permeability of the compound at 10 uM after 5 hrs by PAMPA
Format: ADME
measurement-context: PAMPA
quantity-kind: Papp at 5 h, 10 µM
Answer format: value, then unit.

[Q] Report Papp at 5 h, 10 µM for `CCCCCc1cc(O)cc2c1Oc1cc(O)cc(C(=O)CCCC)c1C(=O)O2` please.
[A] 32.4 ×10⁻⁶ cm/s

----------
experimental-system: Kinesin-like protein KIF20B (Homo sapiens)
Sequence (Q96Q89 whole entry, the tested form may be a part): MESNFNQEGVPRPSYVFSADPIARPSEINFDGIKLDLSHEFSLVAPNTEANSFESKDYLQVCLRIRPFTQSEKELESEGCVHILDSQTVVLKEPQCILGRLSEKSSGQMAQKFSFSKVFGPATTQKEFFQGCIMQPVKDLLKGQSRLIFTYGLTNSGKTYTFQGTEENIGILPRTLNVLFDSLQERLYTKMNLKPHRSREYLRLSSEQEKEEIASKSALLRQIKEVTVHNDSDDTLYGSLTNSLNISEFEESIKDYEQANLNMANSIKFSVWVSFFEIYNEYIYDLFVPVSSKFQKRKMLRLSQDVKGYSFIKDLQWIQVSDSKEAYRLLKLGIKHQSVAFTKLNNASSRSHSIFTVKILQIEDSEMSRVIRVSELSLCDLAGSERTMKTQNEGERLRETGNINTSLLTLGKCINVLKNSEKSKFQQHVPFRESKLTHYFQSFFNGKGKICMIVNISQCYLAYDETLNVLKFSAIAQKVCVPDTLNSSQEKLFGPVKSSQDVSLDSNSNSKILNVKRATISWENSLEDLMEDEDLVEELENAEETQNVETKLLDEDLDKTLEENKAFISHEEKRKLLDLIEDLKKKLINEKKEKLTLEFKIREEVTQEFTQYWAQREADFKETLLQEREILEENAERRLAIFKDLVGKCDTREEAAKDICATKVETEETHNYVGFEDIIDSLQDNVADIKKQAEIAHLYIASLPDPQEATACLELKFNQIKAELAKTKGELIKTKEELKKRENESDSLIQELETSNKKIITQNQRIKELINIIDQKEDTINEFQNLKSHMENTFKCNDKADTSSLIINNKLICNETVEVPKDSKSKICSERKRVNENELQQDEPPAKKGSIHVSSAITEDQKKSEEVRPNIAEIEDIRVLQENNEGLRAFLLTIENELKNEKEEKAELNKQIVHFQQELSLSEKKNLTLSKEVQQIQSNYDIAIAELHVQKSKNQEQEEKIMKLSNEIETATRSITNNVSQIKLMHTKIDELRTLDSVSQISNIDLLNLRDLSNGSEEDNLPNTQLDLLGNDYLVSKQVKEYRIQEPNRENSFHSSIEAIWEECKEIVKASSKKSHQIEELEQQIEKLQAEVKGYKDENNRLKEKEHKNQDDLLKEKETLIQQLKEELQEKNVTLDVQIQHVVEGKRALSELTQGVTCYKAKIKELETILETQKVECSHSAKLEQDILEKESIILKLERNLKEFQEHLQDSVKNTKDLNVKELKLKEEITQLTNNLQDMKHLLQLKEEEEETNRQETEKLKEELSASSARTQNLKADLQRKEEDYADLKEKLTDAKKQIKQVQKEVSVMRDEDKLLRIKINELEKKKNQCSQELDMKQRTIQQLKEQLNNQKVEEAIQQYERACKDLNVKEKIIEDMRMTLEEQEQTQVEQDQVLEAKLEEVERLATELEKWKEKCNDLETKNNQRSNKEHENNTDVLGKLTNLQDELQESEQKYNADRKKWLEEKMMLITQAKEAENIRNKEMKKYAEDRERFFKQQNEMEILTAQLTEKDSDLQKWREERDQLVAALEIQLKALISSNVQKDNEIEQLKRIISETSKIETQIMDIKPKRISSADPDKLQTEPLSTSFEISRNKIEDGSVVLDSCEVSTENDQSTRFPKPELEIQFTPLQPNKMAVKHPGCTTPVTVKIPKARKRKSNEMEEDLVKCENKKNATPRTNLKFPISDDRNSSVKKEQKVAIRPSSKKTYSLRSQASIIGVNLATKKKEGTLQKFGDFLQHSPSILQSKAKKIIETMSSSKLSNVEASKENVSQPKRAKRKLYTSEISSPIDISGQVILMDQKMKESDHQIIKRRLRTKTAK
assay-notes: Inhibition of basal ATPase activity of N-terminal His6-tagged/SUMO-fused human MPP1 motor domain (2 to 477 residues) expressed in Escherichia coli BL21 CodonPlus by pyruvate kinase/lactate dehydrogenase-linked assay
Assignment: determine reported pIC50 for the given compounds.
pIC50 field: float, defined as -log10 of concentration (mol/L).

[Q] Report pIC50 for CCCCCC(=O)Cc1cc(O)cc2c1C(=O)Oc1cc(O)c(C(=O)O)c(CCCCC)c1O2 [PHYSODIC ACID] please.
[A] 4.98

[Q] Report pIC50 for `CCCCCc1cc(O)cc2c1Oc1cc(O)cc(C(=O)CCCC)c1C(=O)O2` please.
[A] 4.97

----------
experimental-system: Kinesin-like protein KIF20B (Homo sapiens)
assay-notes: Inhibition of microtubule-stimulated ATPase activity of N-terminal His6-tagged/SUMO-fused human MPP1 motor domain (57 to 491 residues) expressed in Escherichia coli BL21 CodonPlus by pyruvate kinase/lactate dehydrogenase-linked assay
quantity-kind: pIC50
pIC50 field: float, defined as -log10 of concentration (mol/L).

[Q] Report pIC50 for `CCCCCC(=O)Cc1cc(O)cc2c1C(=O)Oc1cc(O)c(C(=O)O)c(CCCCC)c1O2` please.
[A] 5.24

[Q] Report pIC50 for `CCCCCc1cc(O)cc2c1Oc1cc(O)cc(C(=O)CCCC)c1C(=O)O2` please.
[A] 4.61

----------
Assignment: determine reported solubility kinetic at 2 h for the given compounds.
assay-notes: Solubility of the compound in phosphate buffered saline at pH 2 after 2 hrs by turbidimetric method
Assay type: physicochemical
Quick reminder: number only, in µM, skip the unit.

[Q] Report solubility kinetic at 2 h for `CCCCCc1cc(O)cc2c1Oc1cc(O)cc(C(=O)CCCC)c1C(=O)O2` please.
[A] 6.5

[Q] Report solubility kinetic at 2 h for `CCCCCC(=O)Cc1cc(O)cc2c1C(=O)Oc1cc(O)c(C(=O)O)c(CCCCC)c1O2` please.
[A] 3.75
